IC50 values, listed per item
Biological target: Staphylococcus aureus Topoisomerase IV (Staphylococcus aureus, UniProt P0C1S7+P0C1U9)
Construct: purchased John Innes Enterprises
Sequence (P0C1U9 whole entry): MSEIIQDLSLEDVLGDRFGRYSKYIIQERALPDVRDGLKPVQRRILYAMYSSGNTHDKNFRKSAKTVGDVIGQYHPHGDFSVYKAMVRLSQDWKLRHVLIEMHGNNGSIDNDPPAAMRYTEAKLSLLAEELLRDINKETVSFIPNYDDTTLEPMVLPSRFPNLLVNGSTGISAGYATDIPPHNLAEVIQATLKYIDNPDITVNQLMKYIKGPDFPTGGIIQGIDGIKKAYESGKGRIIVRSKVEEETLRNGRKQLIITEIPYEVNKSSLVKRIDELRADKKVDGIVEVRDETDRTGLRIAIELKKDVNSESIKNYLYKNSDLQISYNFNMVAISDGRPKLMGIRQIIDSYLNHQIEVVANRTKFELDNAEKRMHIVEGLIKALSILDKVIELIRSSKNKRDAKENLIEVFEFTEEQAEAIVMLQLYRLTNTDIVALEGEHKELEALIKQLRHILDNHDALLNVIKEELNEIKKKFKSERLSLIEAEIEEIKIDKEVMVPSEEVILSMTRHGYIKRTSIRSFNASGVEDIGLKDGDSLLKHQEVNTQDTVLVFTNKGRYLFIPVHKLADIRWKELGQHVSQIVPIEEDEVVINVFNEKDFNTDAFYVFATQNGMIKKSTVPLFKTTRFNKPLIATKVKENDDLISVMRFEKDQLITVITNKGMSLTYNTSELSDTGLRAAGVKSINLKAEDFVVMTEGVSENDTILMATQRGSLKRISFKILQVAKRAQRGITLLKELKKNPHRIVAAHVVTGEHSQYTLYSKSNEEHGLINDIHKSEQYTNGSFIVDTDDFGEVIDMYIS
Sequence (P0C1S7 whole entry): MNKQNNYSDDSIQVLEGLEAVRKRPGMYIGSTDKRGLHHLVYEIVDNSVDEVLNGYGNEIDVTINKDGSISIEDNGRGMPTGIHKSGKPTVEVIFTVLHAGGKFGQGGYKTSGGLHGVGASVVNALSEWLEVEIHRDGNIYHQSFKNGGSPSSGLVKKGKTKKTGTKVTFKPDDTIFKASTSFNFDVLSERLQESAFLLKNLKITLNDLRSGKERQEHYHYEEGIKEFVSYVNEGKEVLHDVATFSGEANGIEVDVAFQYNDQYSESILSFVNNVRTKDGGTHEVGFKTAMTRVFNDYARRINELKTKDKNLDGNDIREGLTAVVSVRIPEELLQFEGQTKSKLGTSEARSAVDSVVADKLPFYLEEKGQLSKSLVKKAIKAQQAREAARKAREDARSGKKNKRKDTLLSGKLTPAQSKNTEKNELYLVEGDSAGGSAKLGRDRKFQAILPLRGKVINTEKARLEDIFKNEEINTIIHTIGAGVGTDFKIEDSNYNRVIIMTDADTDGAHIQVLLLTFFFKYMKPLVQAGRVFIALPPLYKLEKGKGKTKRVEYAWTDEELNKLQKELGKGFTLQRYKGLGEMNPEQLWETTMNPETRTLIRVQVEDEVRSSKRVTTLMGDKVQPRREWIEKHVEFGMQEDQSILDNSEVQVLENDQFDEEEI
Assay: Topoisomerase IV inhibition (decatenation kit), Exp. Ex. 2-3
Type: biochemical
Conditions: decatenation of kDNA, 37° C., 30 minutes; read-out: IC50 (S. aureus topoisomerase IV inhibitions)
I only need the number, in nM, no unit after it.

Known results for compounds:
COMPOUND: O=C(CCCc1ccc(F)cc1)OC[C@H]1O[C@@H](Oc2c(-c3ccc(O)c(O)c3)oc3cc(O)cc(O)c3c2=O)[C@H](OC(=O)CCCc2ccc(F)cc2)[C@@H](O)[C@H]1O [Compound 14j]
IC50, nM: 2940
--
COMPOUND: O=C(Cc1ccc(F)cc1)OC[C@H]1O[C@@H](Oc2c(-c3ccc(O)c(O)c3)oc3cc(O)cc(O)c3c2=O)[C@H](OC(=O)Cc2ccc(F)cc2)[C@@H](O)[C@H]1O [Compound 14e]
IC50, nM: 460
--
COMPOUND: O=C(CCc1ccc(F)cc1)OC[C@H]1O[C@@H](Oc2c(-c3ccc(O)c(O)c3)oc3cc(O)cc(O)c3c2=O)[C@H](OC(=O)CCc2ccc(F)cc2)[C@@H](O)[C@H]1O [Compound 14i]
IC50, nM: 220
--
COMPOUND: CCOc1ccc(CCC(=O)OC[C@H]2O[C@@H](Oc3c(-c4ccc(O)c(O)c4)oc4cc(O)cc(O)c4c3=O)[C@H](OC(=O)CCc3ccc(OCC)cc3)[C@@H](O)[C@H]2O)cc1 [Compound 14g]
IC50, nM: 2990

Please turn your attention to the following entry.
Annotate the compound O=C(CCc1ccc(F)cc1)OC[C@H]1O[C@@H](Oc2c(-c3ccc(O)c(O)c3)oc3cc(O)cc(O)c3c2=O)[C@H](OC(=O)CCc2ccc(F)cc2)[C@@H](O)[C@H]1O [Compound 14m] with its measured IC50.
2990
